Recorded protein stability index, one value per entry.
System: Saccharomyces cerevisiae
method-description: protein stability index of tFT-peptide fusion (C-terminal peptide) (PSI (0-1 scale)); higher = more stable (slower turnover)
condition-set: genetic background: wild type; temperature: 30 C
assay-readout: protein stability index

primary_sequence=RDNKIKEGKKKK data_value=0.682
primary_sequence=SLFRYPLALPFP data_value=0.711
primary_sequence=HPTDPPFRNTTA data_value=0.7
primary_sequence=QKKQKIKYRSKN data_value=0.714

====

# protein stability index values compiled below
Tested on: Saccharomyces cerevisiae
method-description: protein stability index of tFT-peptide fusion in wild type (PSI (0-1 scale)); higher = more stable (slower turnover)
condition-set: genetic background: wild type
assay-readout: protein stability index

primary_sequence=YLIQPLPVQFLN assay_readout="protein stability index" data_value=0.0777
primary_sequence=FSMRWTFRAWVN assay_readout="protein stability index" data_value=0.104
primary_sequence=GLYMCSVGCWFN assay_readout="protein stability index" data_value=0.29
primary_sequence=GLYMCSVGCWFH assay_readout="protein stability index" data_value=0.401
primary_sequence=GLYHCSVGCWFR assay_readout="protein stability index" data_value=0.409
primary_sequence=KKHKKGQKQKIQ assay_readout="protein stability index" data_value=0.37
primary_sequence=LVVYLSCVACIM assay_readout="protein stability index" data_value=0.0115
primary_sequence=AITLPMCPLLLC assay_readout="protein stability index" data_value=0.134
primary_sequence=RLHQPLPVQFLN assay_readout="protein stability index" data_value=0.06
primary_sequence=PRWRVGLWRGAS assay_readout="protein stability index" data_value=0.364
primary_sequence=MKHKKGQKQKIN assay_readout="protein stability index" data_value=0.0627
primary_sequence=VRGAVGGLRLVG assay_readout="protein stability index" data_value=0.628
primary_sequence=ARWRVGLWRGVS assay_readout="protein stability index" data_value=0.122
primary_sequence=FSMFWTFRYWVN assay_readout="protein stability index" data_value=0.0733
primary_sequence=LKILRFKMNHQN assay_readout="protein stability index" data_value=0.201

====

Tested on: Saccharomyces cerevisiae
method-description: protein stability index of tFT-peptide fusion (C-terminal peptide) (PSI (0-1 scale)); higher = more stable (slower turnover)
condition-set: genetic background: wild type; temperature: 30 C
Recorded measurements of protein stability index, one per entry
assay-readout: protein stability index

primary_sequence=SSSLPPSHFYPP data_value=0.718
primary_sequence=KQWGTHSSWLEV data_value=0.701
primary_sequence=VWAVGRATARER data_value=0.697
primary_sequence=PQIVRSFLLFPP data_value=0.69
primary_sequence=PLPSLSPLPPPL data_value=0.701
primary_sequence=PNVSPTPPYSSP data_value=0.691
primary_sequence=TTGNTHALSHAH data_value=0.717
primary_sequence=SPSLLLSFLSFF data_value=0.665
primary_sequence=FVLRCLGLVLPV data_value=0.593
primary_sequence=PPPSLSPAPAPP data_value=0.736
primary_sequence=LLRLCGFPLGVG data_value=0.45
primary_sequence=LRANSCCPLFGS data_value=0.739
primary_sequence=HLVPYVVKHLVP data_value=0.678
primary_sequence=VRSSELFNGVWC data_value=0.736
primary_sequence=PAPCAPLLTHRP data_value=0.661
primary_sequence=GWVVWLTGCLVF data_value=0.459
primary_sequence=PLPPHPPPPRPL data_value=0.698
primary_sequence=RRVVIVSGWGWG data_value=0.591
primary_sequence=LRCWVGGALCGG data_value=0.685
primary_sequence=QSARMRRKSNLP data_value=0.674
primary_sequence=SFGLICFLILCG data_value=0.296
primary_sequence=SLASPPPLHCTL data_value=0.659
primary_sequence=GVGVWQWERGRG data_value=0.789
primary_sequence=FERKVHSRWLFF data_value=0.23
primary_sequence=PVKGTMIKAKNT data_value=0.354
primary_sequence=TSLPPNLMRTAA data_value=0.634
primary_sequence=ENERRESLTMVR data_value=0.786
primary_sequence=PCLTCKARSIWL data_value=0.672
primary_sequence=HGSDLSILRIEI data_value=0.722
primary_sequence=PPASSPPSRPPP data_value=0.626
primary_sequence=LPAILALVPRYP data_value=0.674
primary_sequence=LKCGGVRCGSAN data_value=0.648
primary_sequence=WDLPKTLCSKYT data_value=0.727
primary_sequence=WGEAGRPAGRGA data_value=0.688
primary_sequence=GSEPCPRPCGPG data_value=0.692
primary_sequence=FCLGPSLSSSSL data_value=0.714
primary_sequence=VRVCRSVGAGMT data_value=0.649
primary_sequence=VGSSGDEWGRYG data_value=0.733
primary_sequence=LPTPRRHFRPPP data_value=0.657
primary_sequence=GGGWGRVALGQG data_value=0.612
primary_sequence=SRTNVKVRKTGV data_value=0.692
primary_sequence=TPPLHSPFLFPP data_value=0.671
primary_sequence=LPLPLLLFPPPH data_value=0.677
primary_sequence=VSCLFFFVSIPF data_value=0.518
primary_sequence=SPPPPPLTHSPS data_value=0.627
primary_sequence=GRIFAGCGGGGV data_value=0.705
primary_sequence=WSRRGGWEKYGV data_value=0.676
primary_sequence=FCGLLGVCLVMG data_value=0.326
primary_sequence=GVRAPPSPVSGL data_value=0.671
primary_sequence=KYTSQRSPRIFR data_value=0.573
primary_sequence=KRRIGKYEERME data_value=0.661
primary_sequence=HTLQDNHRLPRA data_value=0.606
primary_sequence=PPALRPNPPLPL data_value=0.777
primary_sequence=FLDSFCFFPPLP data_value=0.778
primary_sequence=LLSLLLLSSSPP data_value=0.708
primary_sequence=SPPLRTFPVTLP data_value=0.644
primary_sequence=NPCPSVLCSNCD data_value=0.67
primary_sequence=PPSPPPAFPPPA data_value=0.64
primary_sequence=PPFRPFTSPVTY data_value=0.579
primary_sequence=GAARTPGRARTL data_value=0.685
primary_sequence=PHLPPLLTTTPS data_value=0.61
primary_sequence=AWFIRSLVAYFL data_value=0.545
primary_sequence=LLPSLSPPPTPP data_value=0.655
primary_sequence=KIIKIKKQGENK data_value=0.597
primary_sequence=PLAPPLPPPGPL data_value=0.74
primary_sequence=TPRSCTLPTPPP data_value=0.606
primary_sequence=SPPLQFLPYPFF data_value=0.685
primary_sequence=KIIQDCSSLSKK data_value=0.683
primary_sequence=PVWLFLVRAIKG data_value=0.431
primary_sequence=IIYKPEKMRPKS data_value=0.715
primary_sequence=SPPPPRLPSPTP data_value=0.744

====

Test system: Saccharomyces cerevisiae
method-description: protein stability index of tFT-peptide fusion (C-terminal peptide) (PSI (0-1 scale)); higher = more stable (slower turnover)
condition-set: genetic background: wild type; temperature: 30 C
The threshold is inclusive: protein stability index of exactly 0.7 counts as YES; values below receive NO.

primary_sequence=VVRWRMGLFGGR category_label=NO
primary_sequence=GDVLLLGGAGER category_label=NO
primary_sequence=CQYKRRLKTTET category_label=YES
primary_sequence=DAIVLGSVVVCR category_label=NO
primary_sequence=LETVWRFECGWG category_label=YES
primary_sequence=FQIRGFFGLMAD category_label=YES
primary_sequence=GGAGGTGVRCGT category_label=NO
primary_sequence=ALFLYNCVVVTD category_label=NO
primary_sequence=GVRIVRRGLRRV category_label=YES

====

System: Saccharomyces cerevisiae
method-description: protein stability index of tFT-peptide fusion (C-terminal peptide) (PSI (0-1 scale)); higher = more stable (slower turnover)
condition-set: genetic background: wild type; temperature: 30 C
# key: entry, value: protein stability index
assay-readout: protein stability index

primary_sequence=MGDFGFIFVFFL data_value=0.414
primary_sequence=PRQGGDFVARVG data_value=0.641
primary_sequence=FYGVRFLVCVSA data_value=0.105
primary_sequence=VVLRCGCLVFIN data_value=0.105
primary_sequence=CGLGKVLGWRWV data_value=0.227
primary_sequence=PPRRCFPLLLFF data_value=0.209
primary_sequence=VELRNCYLLVKA data_value=0.22
primary_sequence=TCGAKWIFSHIC data_value=0.152
primary_sequence=GGGSASGWRAAA data_value=0.39

====

Tested on: Saccharomyces cerevisiae
method-description: protein stability index of tFT-peptide fusion (C-terminal peptide) (PSI (0-1 scale)); higher = more stable (slower turnover)
condition-set: genetic background: wild type; temperature: 30 C
I would appreciate it if you labelled entries 1.0 when protein stability index is 0.7 or higher, otherwise 0.0.

primary_sequence=VDCTCLPKRTYE category_label=0.0
primary_sequence=VLCVDQVEVSFV category_label=0.0
primary_sequence=PLHPDSCGSLSS category_label=0.0
primary_sequence=HHRRRRTTDVSL category_label=1.0
primary_sequence=GGKTLSIFLRIS category_label=0.0
primary_sequence=VSAPRPPPAPSP category_label=1.0
primary_sequence=AMFQLRLLVGSV category_label=0.0
